- Test system: RAD54 promoter-GFP reporter (pGen001)
- ASSAY_CONDITIONS: GenT01 yeast, overnight at 25° C., 2% DMSO diluent, no S9
RECORDED_METRIC: GSA genotoxicity result

>>> print(df.to_string())
                       molecule          recorded_metric  measured
0  CNNC [1,2-dimethylhydrazine]  GSA genotoxicity result   induced
1    CN(C)CCN(Cc1cccs1)c1ccccn1  GSA genotoxicity result   induced

###

- Tested on: RAD54 promoter-GFP reporter (pGen001)
- ASSAY_CONDITIONS: GenT01 yeast, overnight at 25° C., 2% DMSO diluent, no S9
RECORDED_METRIC: GSA genotoxicity result

In [3]: df
Out[3]:
                           compound  measured
0  Cc1cc2nc3ccc(N(C)C)cc3nc2cc1N.Cl  positive
1             Nc1c2ccccc2nc2ccccc12  negative
2      CN/C(=N/CCSCc1nc[nH]c1C)NC#N  positive
3           Nc1ccc(Oc2ccc(N)cc2)cc1  negative

###

- System: yeast strain GenT01 (FF18984)
- TEST_DESCRIPTION: GreenScreen assay (GSA), cytotoxicity: final cell density by absorbance
- ASSAY_CONDITIONS: solvent in GSA test samples; toxic at higher concentrations
We begin with a simple list: items and their reported Maximum Concentration (% v/v), suggested maximum tolerable solvent concentration.
RECORDED_METRIC: Maximum Concentration (% v/v), suggested maximum tolerable solvent concentration

>>> print(df.to_string())
                                   compound  measurement_units  measured
0                 C1CCOC1 [Tetrahydrofuran]              % v/v         2
1                             CCO [Ethanol]              % v/v         2
2          C[S+](C)[O-] [Dimethylsulfoxide]              % v/v         5
3      ClC(Cl)(Cl)Cl [Carbon tetrachloride]              % v/v         2
4  CC(O)CCl (centres unmarked) [1-Chloro-2-propanol]              % v/v         2

###

- System: RAD54 promoter-GFP reporter (pGen001)
- ASSAY_CONDITIONS: GenT01 yeast, overnight at 25° C., 2% DMSO diluent, no S9
RECORDED_METRIC: GSA genotoxicity result

In [3]: df
Out[3]:
                                   compound                        target_of_assay          recorded_metric  measured
0  CCCCC(CC)COC(=O)c1ccccc1C(=O)OCC(CC)CCCC (stereo not drawn)  RAD54 promoter-GFP reporter (pGen001)  GSA genotoxicity result   induced
1             C[n+]1ccc(-c2cc[n+](C)cc2)cc1  RAD54 promoter-GFP reporter (pGen001)  GSA genotoxicity result   induced
